# assay: Selectivity index, ratio of IC50 for rat L6 cells to ratio of IC50 for axenic amastigote form of Leishmania donovani MHOM/ET/67/L82
# Assay type: toxicity, cell-based
# settings: read-out: Selectivity Index
Consider the following molecules; for each one, report its selectivity ratio.

Ask: Consider the molecule COc1ccc(CNC(C)c2cc3c(cc2OC)OC(C)(C)C=C3)cc1 (stereo not given) and give its recorded selectivity ratio.
Reply: 0.07

Ask: Give me measured selectivity ratio, please, for this molecule: CCCCNC(C)c1cc2c(cc1OC)OC(C)(C)CC2 (stereo not given)
Reply: 5.5

Ask: Supply selectivity ratio value. Item: COc1cc2c(cc1C(C)N1CCOCC1)C=CC(C)(C)O2 (stereo not given)
Reply: 1.06

Ask: Please look at this molecule and report its selectivity ratio: COc1cc2c(cc1C(C)NCCCCc1ccccc1)CCC(C)(C)O2 (stereo not given)
Reply: 9.3

Ask: Given COc1cc2c(cc1C(C)NC(=O)c1ccccc1)C=CC(C)(C)O2 (stereo not given) , respond with its selectivity ratio.
Reply: 1.3

Ask: Give selectivity ratio for COc1cc2c(cc1C(C)NCC1CCCCC1)C=CC(C)(C)O2 (stereo not given)
Reply: 0.1

Ask: Answer with the recorded selectivity ratio of COc1cc2c(cc1C(C)N(C)CCCc1ccccc1)C=CC(C)(C)O2 (stereo not given) only.
Reply: 0.19

Ask: Recall and state the measured selectivity ratio for COc1cc2c(cc1C(C)NC/C=C/c1ccccc1)C=CC(C)(C)O2 (stereo not given) .
Reply: 0.23

Ask: Name the recorded selectivity ratio of the item CCNC(C)c1cc2c(cc1OC)OC(C)(C)C=C2 (stereo not given) in your answer.
Reply: 0.48

Ask: Using the record for COc1cc2c(cc1C(C)NC(=O)/C=C/c1ccccc1)C=CC(C)(C)O2 (stereo not given) , state its measured selectivity ratio.
Reply: 4.1

---

# Test system: L6
# assay: Cytotoxicity against rat L6 cells
# Type: cell-based
experimental_endpoint: pIC50
Scale for pIC50: -log10 of concentration given in mol/L; no unit attached.

Ask: Entry COc1cc2c(cc1C(C)N1CCOCC1)C=CC(C)(C)O2 (centres undefined) needs its pIC50 filled in; supply it.
Reply: 3.80

Ask: Report pIC50 for COc1cc2c(cc1C(C)NC/C=C/c1ccccc1)C=CC(C)(C)O2 (centres undefined)
Reply: 4.84

Ask: Input COc1cc2c(cc1C(C)N[C@H](C)c1ccccc1)C=CC(C)(C)O2 (some centres undefined) , output reported pIC50.
Reply: 4.80

Ask: Given COc1cc2c(cc1C(C)OCCc1ccccc1)C=CC(C)(C)O2 (centres undefined) , respond with its pIC50.
Reply: 3.91

---

# Tested on: Leishmania tarentolae
# assay: Antiprotozoal activity against promastigote form of Leishmania tarentolae P10 assessed as parasite growth inhibition after 48 hrs by MTT assay
# Assay type: functional, organism-based
# settings: P10, 48 h
For each of the compounds below, state its pIC50.
// returns pIC50 (minus log10 of molar concentration), number only

Ask: For COc1cc2c(cc1C(C)N[C@@H](C)c1ccccc1)C=CC(C)(C)O2 (stereo partly drawn) , write its pIC50.
Reply: 5.05

Ask: Find the measured pIC50 of COc1cc2c(cc1C(C)N[C@H](C)c1ccccc1)C=CC(C)(C)O2 (stereo partly drawn) and report it.
Reply: 5.06

Ask: Read the entry CCNC(C)c1cc2c(cc1OC)OC(C)(C)C=C2 (stereo not drawn) and write its reported pIC50.
Reply: 5.06

Ask: Provide measured pIC50 value, entry: COc1cc2c(cc1C(C)N(C)CCCc1ccccc1)C=CC(C)(C)O2 (stereo not drawn)
Reply: 5.05

Ask: Give recorded pIC50. CC(NCCCc1ccccc1)c1cc2c(cc1O)OC(C)(C)C=C2 (stereo not drawn)
Reply: 5.21

Ask: Tell me measured pIC50 for COc1cc2c(cc1C(C)NC(=O)c1ccccc1)C=CC(C)(C)O2 (stereo not drawn) please.
Reply: 5.06

Ask: In one line, give reported pIC50 of the entry CCCCNC(C)c1cc2c(cc1OC)OC(C)(C)C=C2 (stereo not drawn) .
Reply: 5.20

Ask: Return reported pIC50. Input compound: C/C=C(/C)C(=O)OC(C)c1cc2c(cc1OC)OC(C)(C)C=C2 (stereo not drawn)
Reply: 4.67

Ask: Give pIC50 for COc1cc2c(cc1C(C)NCC1CCCCC1)C=CC(C)(C)O2 (stereo not drawn)
Reply: 6.19

Ask: Read the entry CC(NCc1ccccc1)c1cc2c(cc1O)OC(C)(C)C=C2 (stereo not drawn) and write its reported pIC50.
Reply: 4.91

Ask: Please report pIC50 for the following compound: COc1cc2c(cc1C(C)NC(=O)Cc1ccccc1)C=CC(C)(C)O2 (stereo not drawn)
Reply: 5.11

Ask: Write down pIC50 measured for item COc1cc2c(cc1C(C)N1CCOCC1)C=CC(C)(C)O2 (stereo not drawn)
Reply: 4.91

Ask: Check the records and state pIC50 for COc1ccc(CNC(C)c2cc3c(cc2OC)OC(C)(C)C=C3)cc1 (stereo not drawn)
Reply: 5.01
